A collection of molecules and their measured EC50
test system: HCV replicon in Huh7 cells; test: HCV replicon cell-based assay; design: species or system HCV strain 1B; details: Hepatitis C virus, Huh-7; HCV replicon, Huh7 cells; read-out: EC50 range

Below, each entry is followed by its recorded EC50 result.
* C=C[C@@H]1C[C@]1(NC(=O)[C@@H]1C[C@@H](Oc2nc(-c3ccccc3)cc3ccccc23)CN1C(=O)[C@@H](NC(=O)OC(C)(C)C)C(C)(C)C)C(=O)NS(=O)(=O)C1CC1 [Compound 25] | < 100 nM
* C=CC1C[C@]1(NC(=O)[C@@H]1C[C@@H](Oc2nccc3cc(F)ccc23)CN1C(=O)[C@@H](NC(=O)OC(C)(C)C)C(C)(C)C)C(=O)NS(=O)(=O)C1CC1 (some centres unmarked) [Compound 187] | 100 to 1000 nM

// returns reported EC50 for input C=C[C@@H]1C[C@]1(NC(=O)[C@@H]1C[C@@H](Oc2nccc3ccc(Cl)cc23)CN1C(=O)[C@@H](NC(=O)OC(C)(C)C)C(C)(C)C)C(=O)NS(=O)(=O)C1CC1 [Compound 258]
< 100 nM

// returns reported EC50 for input C=C[C@@H]1C[C@]1(NC(=O)[C@@H]1C[C@@H](Oc2nccc3ccccc23)CN1C(=O)[C@@H](NC(=O)CCOC)C(C)(C)C)C(=O)NS(=O)(=O)C1CC1 [Compound 132]
1000 to 10000 nM

// returns reported EC50 for input C=C[C@@H]1C[C@]1(NC(=O)[C@@H]1C[C@@H](Oc2cc(C)nc(-c3cccs3)c2)CN1C(=O)[C@@H](NC(=O)OC(C)(C)C)C(C)(C)C)C(=O)NS(=O)(=O)C1CC1 [Compound 438]
100 to 1000 nM

====

System: HCV replicon in Huh7 cells
Experiment: HCV replicon cell-based assay
Parameters: species or system HCV strain 1B
Details: Hepatitis C virus, Huh-7; HCV replicon, Huh7 cells; read-out: EC50 range
Protocol: HCV Replicon Cell-based Assay This system enabled us to evaluate the effects of our HCV Protease compounds on HCV RNA replication. […] Huh7 cells, constitutively expressing the HCV replicon, were grown in Dulbecco's Modified Eagle Media (DMEM) containing 10% Fetal calf serum (FCS) and 1 mg/ml G418 (Gibco-BRL). […] The plate was then placed into the Cytofluor 4000 instrument which had been set to 340 nm excitation/490 emission, automatic mode for 21 cycles and the plate read in a kinetic mode. […]
pEC50: −log10 of the molar value.
A collection of compounds and their measured pEC50

Below, each entry is followed by its recorded pEC50 result.
* C=C[C@@H]1C[C@]1(NC(=O)[C@@H]1C[C@@H](Oc2nc(C#N)cc3ccccc23)CN1C(=O)[C@@H](NC(=O)OC(C)(C)C)C(C)(C)C)C(=O)NS(=O)(=O)C1CC1 [Compound 32] | > 7.00
* C=CC1C[C@]1(NC(=O)[C@@H]1C[C@@H](COc2cccc(-c3cccs3)n2)CN1C(=O)[C@@H](NC(=O)OC)C(C)(C)C)C(=O)NS(=O)(=O)C1CC1 (stereo partly shown) [Compound 356] | 5.00 to 6.00
* C=C[C@@H]1C[C@]1(NC(=O)[C@@H]1C[C@@H](Oc2nccc3c4c(ccc23)OCC4)CN1C(=O)[C@@H](NC(=O)OC(C)(C)C)C(C)(C)C)C(=O)NS(=O)(=O)C1CC1 [Compound 267] | > 7.00
* C=C[C@@H]1C[C@]1(NC(=O)[C@@H]1C[C@@H](Oc2nccc3cc(OC(F)(F)F)ccc23)CN1C(=O)[C@@H](NC(=O)OC(C)(C)C)C(C)(C)C)C(=O)NS(=O)(=O)C1CC1 [Compound 282] | 6.00 to 7.00
* C=C[C@@H]1C[C@]1(NC(=O)[C@@H]1CC(Oc2nccc3cc(OC)ccc23)CN1C(=O)[C@@H](NC(=O)N(CC)CC)C(C)(C)C)C(=O)NS(=O)(=O)C1CC1 (stereo partly shown) [Compound 79] | 6.00 to 7.00
* C=C[C@@H]1C[C@]1(NC(=O)[C@@H]1CC(Oc2nccc3cc(OC)ccc23)CN1C(=O)[C@H](C(C)C)N(C)C(=O)OC(C)(C)C)C(=O)NS(=O)(=O)C1CC1 (stereo partly shown) [Compound 85] | 5.00 to 6.00
* C=C[C@@H]1C[C@]1(NC(=O)[C@@H]1C[C@@H](Oc2cc(-c3ccccc3)nc3nc(C)ccc23)CN1C(=O)[C@@H](NC(=O)OC(C)(C)C)C(C)(C)C)C(=O)NS(=O)(=O)C1CC1 [Compound 2] | 6.00 to 7.00
* C=C[C@@H]1C[C@]1(NC(=O)[C@@H]1CC(Oc2nccc3cc(OC)ccc23)CN1C(=O)[C@@H](NC(=O)C1C2CC1C2)C(C)(C)C)C(=O)NS(=O)(=O)C1CC1 (stereo partly shown) [Compound 62] | > 7.00

// returns reported pEC50 for input C=CC1C[C@]1(NC(=O)[C@@H]1C[C@@H](Oc2nc(-c3cccnc3)cc3cc(OC)ccc23)CN1C(=O)[C@@H](NC(=O)OC(C)(C)C)C(C)(C)C)C(=O)NS(=O)(=O)C1CC1 (stereo partly shown) [Compound 328]
> 7.00

// returns reported pEC50 for input C=CC1C[C@]1(NC(=O)[C@@H]1C[C@@H](Oc2nnc(OC(C)C)c3ccccc23)CN1C(=O)[C@@H](NC(=O)OC(C)(C)C)C(C)(C)C)C(=O)NS(=O)(=O)C1CC1 (stereo partly shown) [Compound 199]
6.00 to 7.00
